# System: human bronchial epithelial cells, CFTR corrector, plate reader
# ASSAY_PROCEDURE: rescue of ΔF508 CFTR function, airway epithelium – human bronchial epithelial cells, plate reader, cherry-pick, two tests, dose response (AID 743267)
# CONDITION_LABEL: measured here: test 2 replicate run
// AC50 lookup, one value per entry
MEASURED_PARAMETER: AC50

# COMPOUND, ASSAY_RESULT
measured = [
    ("CO[C@@]12[C@@H]3N[C@@H]3CN1C1=C(C(=O)C(N)=C(C)C1=O)[C@@H]2COC(N)=O", "11.5 µM"),
    ("Cc1nn2cc(-c3cccc(Cl)c3)cnc2c1Br", "3.81 µM"),
    ("COc1cc(/C=N/NC(=O)c2cc(-c3c(C)nn(-c4ccccc4)c3C)n[nH]2)ccc1O", "7.78 µM"),
    ("COc1ccc(C2=Nn3c(nnc3-c3ccccc3F)SC2)cc1OC1CCOC1 (stereo not given)", "22.3 µM"),
    ("COc1cc(OC)c(-c2c3cc(O)c(=O)cc-3oc3cc(O)c(O)cc23)cc1OC", "8.08 µM"),
]
